Tested on: UACC-257 melanoma
Assay: NCI tumour cell line growth inhibition, 48 h
TGI listing for selected molecules.
RECORDED METRIC: TGI

MOLECULE	MEASURED ON	RECORDED METRIC	REPORTED MEASUREMENT
CN(C)CCCN1c2ccccc2Sc2cnccc21	UACC-257 melanoma	TGI	49.5 µM
Clc1ccccc1/C=C/c1cscn1	UACC-257 melanoma	TGI	> 100 µM
CC(C)Oc1ccc2c(c1)OCC1Cc3ccccc3OC21 (centres undefined)	UACC-257 melanoma	TGI	> 100 µM
O=C1O/C(=C(/Br)c2ccc(Cl)c(Cl)c2)c2ccccc21	UACC-257 melanoma	TGI	> 10 µM

====

Test system: MDA-MB-231 breast
Assay: NCI tumour cell line growth inhibition, 48 h

MOLECULE	MEASURED ON	TGI
CCOP(=O)(CN1CCNCCNCC1)OCC	MDA-MB-231 breast	> 100 µM
NCCCCC(N)C(=O)NCCNc1ccc(NCCNC(=O)C(N)CCCCN)c2c1C(=O)c1ccccc1C2=O (stereo unspecified)	MDA-MB-231 breast	> 100 µM
COc1cc(/C=C2\CCCC3=C2NC(C)=NC3c2cc(OC)c(OC)c(OC)c2)cc(OC)c1OC (stereo unspecified)	MDA-MB-231 breast	> 100 µM
O=C(O)Cc1cc(O)c(CC(=O)O)cc1O	MDA-MB-231 breast	> 100 µM
Nc1ncn(C2CC(O)C(CO)O2)c(=O)n1 (stereo unspecified)	MDA-MB-231 breast	> 343 µM
COc1cc(/C=C2\N=C(c3ccccc3)N(c3nc4c(OC)ccc(OC)c4s3)C2=O)ccc1O	MDA-MB-231 breast	> 100 µM
CC(=NNC(=S)Nc1ccc(C)cc1)c1cccc(C(C)=NNC(=S)Nc2ccc(C)cc2)n1	MDA-MB-231 breast	> 100 µM
CNc1nc2n(CCO)c(-c3ccccc3)c(-c3ccccc3)nc-2c(=O)n1	MDA-MB-231 breast	> 50 µM
COc1ccc(CCN2CCN(CCc3ccc(OC)cc3)CC2)cc1	MDA-MB-231 breast	> 100 µM
CC1ON2CCCC2[C@H]1C(=O)N1C2CC3CCC2(CS1(=O)=O)C3(C)C (stereo partly specified)	MDA-MB-231 breast	> 100 µM
COc1ccc(C2C3=C(Nc4ncnn42)c2ccccc2OC3c2ccccc2)cc1 (stereo unspecified)	MDA-MB-231 breast	> 100 µM

====

Tested on: XF 498 CNS
Experiment: NCI tumour cell line growth inhibition, 48 h
RECORDED METRIC: TGI

MOLECULE	MEASURED ON	RECORDED METRIC	REPORTED MEASUREMENT
CC(C)N1CN(C(C(=O)N[C@@H]2C(=O)N3C2SC(C)(C)C3C(=O)O)c2ccccc2)CSC1=S (stereo not given in full)	XF 498 CNS	TGI	> 100 µM
CCO/N=C(/N)c1ncn(Cc2ccccc2)c1NCC(OCC)OCC	XF 498 CNS	TGI	> 100 µM
CC(=O)N1C/C(=C\c2ccc(N(C)C)cc2)C(=O)/C(=C/c2ccc(N(C)C)cc2)C1	XF 498 CNS	TGI	> 100 µM
CC(C)c1cc2c(O)c(c1)Cc1cc(C(C)C)cc(c1O)Cc1cc(C(C)C)cc(c1O)Cc1cc(C(C)C)cc(c1O)C2	XF 498 CNS	TGI	> 100 µM
O=c1[nH]c(=O)n(C2OC(CO)C(O)C(O)C2O)cc1F (stereo not given)	XF 498 CNS	TGI	> 100 µM
